Where these numbers come from: ChEMBL document CHEMBL3885861

organism: Rattus norvegicus; experiment: Open TG-GATES - Regimen: Daily Repeat; format: toxicity, organism-based, Sprague-Dawley; parameters: regimen Daily Repeat, gender Male, age 6 weeks; conditions: in vivo, po, 0 mg/kg, […], tissue Plasma, route gavage, dose level Control, time 14 day
Each entry below lists one item and its recorded RALB value.
measured property: RALB

>>> result("COC(=O)C1=C(C)NC(C)=C(C(=O)OC)C1c1ccccc1[N+](=O)[O-]")
"2.8 g/dL"
>>> result("CCCc1cc(=O)[nH]c(=S)[nH]1")
"3.9 g/dL"
>>> result("Brc1ccccc1")
"2.7 g/dL"
>>> result("O=C(OC[C@H]1O[C@@H](OC(=O)c2cc(O)c(O)c(OC(=O)c3cc(O)c(O)c(O)c3)c2)[C@H](OC(=O)c2cc(O)c(O)c(OC(=O)c3cc(O)c(O)c(O)c3)c2)[C@@H](OC(=O)c2cc(O)c(O)c(OC(=O)c3cc(O)c(O)c(O)c3)c2)[C@@H]1OC(=O)c1cc(O)c(O)c(OC(=O)c2cc(O)c(O)c(O)c2)c1)c1cc(O)c(O)c(OC(=O)c2cc(O)c(O)c(O)c2)c1")
"3.8 g/dL"
>>> result("Nc1c2c(nc3ccccc13)CCCC2")
"3.3 g/dL"
>>> result("Cc1nnc2n1-c1ccc(Cl)cc1C(c1ccccc1Cl)=NC2")
"2.6 g/dL"
>>> result("NC1=NC(=O)C(c2ccccc2)O1 (stereo not drawn)")
"2.7 g/dL"
>>> result("CN/C(=N/CCSCc1nc[nH]c1C)NC#N")
"3.4 g/dL"

---

species: Rattus norvegicus; experiment: Open TG-GATES - Regimen: Single; type: toxicity, organism-based, Sprague-Dawley; parameters: regimen Single, gender Male, age 6 weeks; details: in vivo, po, 300 mg/kg, 9 h, tissue Plasma, route gavage, dose level Middle
Each entry below lists one item and its recorded CRE value.
measured property: CRE (mg/dL)

>>> result_number("COC(=O)C1=C(C)NC(C)=C(C(=O)OC)C1c1ccccc1[N+](=O)[O-]")
0.2
>>> result_number("CNC(=C[N+](=O)[O-])NCCSCc1ccc(CN(C)C)o1")
0.4
>>> result_number("O=C(OC[C@H]1O[C@@H](OC(=O)c2cc(O)c(O)c(OC(=O)c3cc(O)c(O)c(O)c3)c2)[C@H](OC(=O)c2cc(O)c(O)c(OC(=O)c3cc(O)c(O)c(O)c3)c2)[C@@H](OC(=O)c2cc(O)c(O)c(OC(=O)c3cc(O)c(O)c(O)c3)c2)[C@@H]1OC(=O)c1cc(O)c(O)c(OC(=O)c2cc(O)c(O)c(O)c2)c1)c1cc(O)c(O)c(OC(=O)c2cc(O)c(O)c(O)c2)c1")
0.4
>>> result_number("CN/C(=N/CCSCc1nc[nH]c1C)NC#N")
0.4
>>> result_number("Cc1nnc2n1-c1ccc(Cl)cc1C(c1ccccc1Cl)=NC2")
0.2

---

organism: Rattus norvegicus; assay: Open TG-GATES - Regimen: Single; format: toxicity, organism-based, Sprague-Dawley; parameters: regimen Single, gender Male, age 6 weeks; details: in vivo, po, 0 mg/kg, 6 h, tissue Kidney, route gavage, dose level Control
Each entry below lists one item and its recorded KIDNEY_R value.
measured property: KIDNEY_R (g)

>>> result_number("Nc1c2c(nc3ccccc13)CCCC2")
0.9
>>> result_number("CC(C)NNC(=O)c1ccncc1")
1
>>> result_number("CNC(=C[N+](=O)[O-])NCCSCc1ccc(CN(C)C)o1")
0.9
>>> result_number("CS(=O)(=O)O.Cc1ccc(NC(=O)c2ccc(CN3CCN(C)CC3)cc2)cc1Nc1nccc(-c2cccnc2)n1 [IMATINIB MESYLATE]")
0.8
>>> result_number("CCCc1cc(=O)[nH]c(=S)[nH]1")
0.8
>>> result_number("CN/C(=N/CCSCc1nc[nH]c1C)NC#N")
1
>>> result_number("O=C(OC[C@H]1O[C@@H](OC(=O)c2cc(O)c(O)c(OC(=O)c3cc(O)c(O)c(O)c3)c2)[C@H](OC(=O)c2cc(O)c(O)c(OC(=O)c3cc(O)c(O)c(O)c3)c2)[C@@H](OC(=O)c2cc(O)c(O)c(OC(=O)c3cc(O)c(O)c(O)c3)c2)[C@@H]1OC(=O)c1cc(O)c(O)c(OC(=O)c2cc(O)c(O)c(O)c2)c1)c1cc(O)c(O)c(OC(=O)c2cc(O)c(O)c(O)c2)c1")
0.9
>>> result_number("NC1=NC(=O)C(c2ccccc2)O1 (centres undefined)")
0.9
>>> result_number("CCOc1ccc(NC(C)=O)cc1")
1
>>> result_number("CN1C(=O)CCS(=O)(=O)C1c1ccc(Cl)cc1 (centres undefined)")
0.9
>>> result_number("COC(=O)C1=C(C)NC(C)=C(C(=O)OC)C1c1ccccc1[N+](=O)[O-]")
0.9
>>> result_number("Brc1ccccc1")
0.8
>>> result_number("Cc1nnc2n1-c1ccc(Cl)cc1C(c1ccccc1Cl)=NC2")
0.9
>>> result_number("CN(C)CCC(c1ccc(Cl)cc1)c1ccccn1 (centres undefined)")
0.9
